Ref: patent US9924716B2

Tested on: Beet Armyworm (Spodoptera exigua, LAPHEG) second instar larvae
assay: Bioassay on Beet Armyworm (BAW), 128-well diet tray assay
Assay type: in vivo
protocolConditions: Beet Armyworm, Table ABC Biological Results, read-out: BAW rating
valueKind: pest or weed control at 50 µg/cm2

Data point: C[C@H](NC(=O)CC(F)(F)F)NC(=O)c1ccc(/C(F)=C/C(c2ccc(Br)c(Cl)c2)C(F)(F)F)cc1C(F)(F)F (stereo partly drawn) ; pest or weed control at 50 µg/cm2 = 50 to 100%

Data point: Cc1cc(/C(F)=C/C(c2cc(Cl)c(Cl)c(Cl)c2)C(F)(F)F)ccc1C(=O)N[C@H](C)NC(=O)CC(F)(F)F (stereo partly drawn) ; pest or weed control at 50 µg/cm2 = 50 to 100%

Data point: Cc1cc(C(/C=C(\F)c2ccc(C(=O)N[C@H](C)NC(=O)CCC(F)(F)F)c(C(F)(F)F)c2)C(F)(F)F)cc(C)c1Cl (stereo partly drawn) ; pest or weed control at 50 µg/cm2 = 50 to 100%
